Hey, just so you know, these numbers are from the RNAGym collection of RNA variant scans (doi:10.7554/elife.80360).

B1: Hairpin Ribozyme (parent)
chain: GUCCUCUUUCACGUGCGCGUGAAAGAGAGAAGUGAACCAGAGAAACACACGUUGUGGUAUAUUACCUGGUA

Variants of: B1
ASSAY_DETAILS: self-cleavage, relative activity (ratio to wild type); higher = more cleavage; co-transcriptional
REPORTED_METRIC: self-cleavage
Answers are plain numbers.

Example cases with answers are listed next.
A31C A36G ... 0.124
G34A A45C ... 0.202
C10U U58C ... 0.771

Give self-cleavage for each of the items listed below.
1. G25A A71G
2. A45G C66A
3. C12U G54U
4. G15A A35G
5. G42U U70C
6. A36G C66G
7. G21A U53A
8. G25U G27U

0.66
0.176
0.58
0.934
0.162
0.288
0.824
0.17

Please go through the list and note self-cleavage for each variant.
1. C50G U63A
2. U33C A44G
3. A41G C66U
4. U2C A64G
5. G17U U67A

1. 0.177
2. 0.0547
3. 0.682
4. 0.123
5. 0.249

# per-item lookup of self-cleavage; items listed below
1. C6A A30C
2. A28G A59C
3. A11G C37U
4. C50A A59G
5. A31C U63A

1. 0.221
2. 0.114
3. 0.357
4. 0.0618
5. 0.162

Take each entry in turn and give its self-cleavage.
1. U9G G34A
2. G1U A44U
3. G27C U58G
4. U7C C18U
5. C4A G19A
6. G40C A44C
7. G68U U70C

1: 0.8; 2: 0.128; 3: 0.188; 4: 1.06; 5: 0.174; 6: 0.0317; 7: 0.201
